Overview of recorded IC50 for various molecules
Measured On: ATM (Homo sapiens, UniProt Q13315)
Construct: detecting phosphorylation of Chk2 in a human non-small cell lung cancer cell line NCI-H460 (ATCC company); host or cells: NCI-H460 human non-small cell lung cancer cells
Sequence (Q13315 whole entry): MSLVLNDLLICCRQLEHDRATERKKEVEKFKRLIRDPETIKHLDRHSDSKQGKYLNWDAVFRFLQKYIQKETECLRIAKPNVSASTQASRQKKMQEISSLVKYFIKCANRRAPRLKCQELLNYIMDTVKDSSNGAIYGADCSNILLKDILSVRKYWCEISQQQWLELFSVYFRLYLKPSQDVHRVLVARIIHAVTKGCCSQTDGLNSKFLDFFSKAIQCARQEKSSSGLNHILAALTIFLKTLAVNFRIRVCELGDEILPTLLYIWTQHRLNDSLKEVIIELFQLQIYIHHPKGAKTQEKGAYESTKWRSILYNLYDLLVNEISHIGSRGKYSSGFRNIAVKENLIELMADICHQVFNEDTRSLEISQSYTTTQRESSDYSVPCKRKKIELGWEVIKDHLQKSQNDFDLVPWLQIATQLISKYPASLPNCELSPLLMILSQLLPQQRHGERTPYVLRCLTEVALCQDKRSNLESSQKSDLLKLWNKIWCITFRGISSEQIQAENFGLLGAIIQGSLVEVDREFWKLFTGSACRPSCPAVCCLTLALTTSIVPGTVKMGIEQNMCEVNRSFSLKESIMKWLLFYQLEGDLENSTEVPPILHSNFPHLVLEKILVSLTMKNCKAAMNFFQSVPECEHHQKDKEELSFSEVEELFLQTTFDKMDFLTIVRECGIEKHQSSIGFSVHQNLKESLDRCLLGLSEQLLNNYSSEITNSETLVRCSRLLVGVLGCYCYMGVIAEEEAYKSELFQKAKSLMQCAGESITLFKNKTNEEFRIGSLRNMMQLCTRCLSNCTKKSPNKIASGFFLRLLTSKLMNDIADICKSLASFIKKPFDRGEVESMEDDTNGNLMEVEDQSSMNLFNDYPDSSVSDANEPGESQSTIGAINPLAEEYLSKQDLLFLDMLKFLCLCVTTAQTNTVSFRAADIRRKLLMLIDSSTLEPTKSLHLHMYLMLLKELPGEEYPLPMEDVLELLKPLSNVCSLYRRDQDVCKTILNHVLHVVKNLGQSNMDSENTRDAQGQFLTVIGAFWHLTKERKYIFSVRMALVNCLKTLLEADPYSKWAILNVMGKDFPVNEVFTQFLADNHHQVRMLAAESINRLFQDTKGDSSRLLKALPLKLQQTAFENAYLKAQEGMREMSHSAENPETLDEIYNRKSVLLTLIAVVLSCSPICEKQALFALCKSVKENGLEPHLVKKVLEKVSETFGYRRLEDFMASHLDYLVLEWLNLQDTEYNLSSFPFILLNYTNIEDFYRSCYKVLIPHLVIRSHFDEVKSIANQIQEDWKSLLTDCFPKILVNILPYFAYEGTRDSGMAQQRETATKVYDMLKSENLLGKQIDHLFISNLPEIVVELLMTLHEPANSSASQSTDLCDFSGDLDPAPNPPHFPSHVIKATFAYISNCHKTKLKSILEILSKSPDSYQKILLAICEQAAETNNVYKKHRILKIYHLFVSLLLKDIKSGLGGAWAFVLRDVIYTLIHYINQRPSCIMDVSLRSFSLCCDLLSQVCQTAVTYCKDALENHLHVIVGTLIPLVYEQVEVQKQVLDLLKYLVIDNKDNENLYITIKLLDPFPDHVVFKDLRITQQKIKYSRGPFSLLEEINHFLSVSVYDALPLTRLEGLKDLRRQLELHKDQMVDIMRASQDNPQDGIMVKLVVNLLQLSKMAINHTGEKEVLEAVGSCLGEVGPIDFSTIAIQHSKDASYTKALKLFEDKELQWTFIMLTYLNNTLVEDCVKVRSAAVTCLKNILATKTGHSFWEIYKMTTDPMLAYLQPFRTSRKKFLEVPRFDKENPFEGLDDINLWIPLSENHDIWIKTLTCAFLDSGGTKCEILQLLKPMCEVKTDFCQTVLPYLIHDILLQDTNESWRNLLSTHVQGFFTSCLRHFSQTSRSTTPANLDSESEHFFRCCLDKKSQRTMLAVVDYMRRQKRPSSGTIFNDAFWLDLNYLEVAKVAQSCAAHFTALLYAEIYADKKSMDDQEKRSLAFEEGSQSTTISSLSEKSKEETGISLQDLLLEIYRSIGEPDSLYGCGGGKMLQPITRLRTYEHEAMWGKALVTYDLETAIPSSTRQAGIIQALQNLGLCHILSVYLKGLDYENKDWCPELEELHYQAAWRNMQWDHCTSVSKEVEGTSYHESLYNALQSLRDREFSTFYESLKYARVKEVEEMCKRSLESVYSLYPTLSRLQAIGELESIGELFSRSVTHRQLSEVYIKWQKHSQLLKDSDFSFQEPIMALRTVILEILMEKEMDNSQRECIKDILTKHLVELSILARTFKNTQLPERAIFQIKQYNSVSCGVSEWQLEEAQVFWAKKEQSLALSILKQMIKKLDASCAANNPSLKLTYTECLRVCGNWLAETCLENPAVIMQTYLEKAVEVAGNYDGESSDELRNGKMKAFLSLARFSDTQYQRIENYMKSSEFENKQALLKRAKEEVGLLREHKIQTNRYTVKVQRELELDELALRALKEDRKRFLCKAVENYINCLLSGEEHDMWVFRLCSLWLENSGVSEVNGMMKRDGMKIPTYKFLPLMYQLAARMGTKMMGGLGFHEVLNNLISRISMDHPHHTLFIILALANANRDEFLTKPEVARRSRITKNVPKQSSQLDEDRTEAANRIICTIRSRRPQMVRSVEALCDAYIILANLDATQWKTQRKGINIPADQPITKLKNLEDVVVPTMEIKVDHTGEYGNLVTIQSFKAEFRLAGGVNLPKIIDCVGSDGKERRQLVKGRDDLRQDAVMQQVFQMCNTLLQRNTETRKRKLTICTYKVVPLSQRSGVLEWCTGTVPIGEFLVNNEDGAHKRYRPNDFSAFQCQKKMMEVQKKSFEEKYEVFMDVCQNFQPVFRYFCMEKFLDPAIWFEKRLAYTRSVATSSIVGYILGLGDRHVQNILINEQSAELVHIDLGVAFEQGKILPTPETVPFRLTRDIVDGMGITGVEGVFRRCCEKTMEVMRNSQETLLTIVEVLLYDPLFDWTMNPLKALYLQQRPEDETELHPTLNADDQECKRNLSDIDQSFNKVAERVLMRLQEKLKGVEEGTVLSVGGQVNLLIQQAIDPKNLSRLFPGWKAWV
Test Protocol: ATM inhibition test (phosphorylation of Chk2 generated by ionizing radiation, AlphaScreen SureFire)
Type: cell-based
Condition Set: phosphorylated Chk2 in NCI-H460 cells, ionizing radiation 8Gy, 1 hour after test compound treatment; read-out: ATM inhibitory activity
Assay Metric: IC50

Molecule | Assay Metric | Measured
COCC(Nc1ccc2c(c1)Cc1cccc(-c3cc(N4CCOCC4)cc(=O)[nH]3)c1O2)c1cccc(C)n1 (stereo not drawn) [Example 2-14-45] | IC50 | < 100 nM
COc1ccncc1CNc1ccc2c(c1)Cc1cccc(-c3cc(N4CCOCC4)cc(=O)[nH]3)c1O2 [Example 2-2-34] | IC50 | 500 to 2000 nM
Cc1cccc(C(CCN2CCCC2)Nc2ccc3c(c2)Sc2cccc(-c4cc(N5CCOCC5)cc(=O)[nH]4)c2S3)n1 (stereo not drawn) [Example 1-34-6] | IC50 | 100 to 500 nM
COc1ccncc1CNc1ccc2c(c1)Sc1cccc(-c3cc(N4CCOCC4)cc(=O)[nH]3)c1O2 [Example 4-8-10] | IC50 | 100 to 500 nM
O=c1cc(N2CCOCC2)cc(-c2cccc3c2Sc2ccc(NCc4nccs4)cc2S3)[nH]1 [Example 1-12-52] | IC50 | 100 to 500 nM
Cc1cccc(C(C)Nc2ccc3c(c2)Cc2cccc(-c4cc(N5CCOCC5)cc(=O)[nH]4)c2O3)n1 (single isomer, unassigned) [Example 2-14-85-2] | IC50 | < 100 nM

###

Measured On: ATM (Homo sapiens, UniProt Q13315)
Construct: detecting phosphorylation of Chk2 in a human non-small cell lung cancer cell line NCI-H460 (ATCC company); host or cells: NCI-H460 human non-small cell lung cancer cells
Test Protocol: ATM inhibition test (phosphorylation of Chk2 generated by ionizing radiation, AlphaScreen SureFire)
Format: cell-based
Condition Set: phosphorylated Chk2 in NCI-H460 cells, ionizing radiation 8Gy, 1 hour after test compound treatment; read-out: ATM inhibitory activity
Method: ATM inhibitory effects of a test compound were measured by detecting phosphorylation of Chk2 in a human non-small cell lung cancer cell line NCI-H460 (ATCC company). The level of phosphorylated Chk2 generated by an ionizing radiation was measured using AlphaScreen SureFire (TGR Biosciences). The cells were seeded by 40000 cells per well in 96-well CellBIND® plates (Corning International Inc.), and incubated at 37° C. overnight in 5% CO2. […]
pIC50: −log10 of the molar value.
Assay Metric: pIC50

Molecule | Measured
CC[C@H](N)C(CC(C)C)Nc1ccc2c(c1)Sc1cccc(-c3cc(N4CCOCC4)cc(=O)[nH]3)c1S2 (stereo partly shown) | 5.70 to 6.30
CCCC(Nc1ccc2c(c1)Sc1cccc(-c3cc(N4CCOCC4)cc(=O)[nH]3)c1S2)c1ccc(C)cn1 (stereo not shown) | 6.30 to 7.00
O=c1cc(N2CCOCC2)cc(-c2cccc3c2Oc2ccc(NC4CCOC4)cc2C3)[nH]1 (stereo not shown) | 5.70 to 6.30
CN1CC(CNc2ccc3c(c2)Sc2cccc(-c4cc(N5CCOCC5)cc(=O)[nH]4)c2S3)C1 | 6.30 to 7.00

###

Overview of recorded pIC50 for various compounds
Measured On: ATM (Homo sapiens)
Construct: detecting phosphorylation of Chk2 in a human non-small cell lung cancer cell line NCI-H460 (ATCC company); host or cells: NCI-H460 human non-small cell lung cancer cells
Test Protocol: ATM inhibition test (phosphorylation of Chk2 generated by ionizing radiation, AlphaScreen SureFire)
Assay type: cell-based
Condition Set: phosphorylated Chk2 in NCI-H460 cells, ionizing radiation 8Gy, 1 hour after test compound treatment; read-out: ATM inhibitory activity
pIC50: −log10 of the molar value.

Compound | Measured On | pIC50
O=c1cc(N2CCOCC2)cc(-c2cccc3c2Oc2ccc(NCc4ncccn4)cc2C3)[nH]1 | ATM (Homo sapiens) | 5.70 to 6.30
Cc1cncc(C(C)Nc2ccc3c(c2)Sc2cccc(-c4cc(N5CCOCC5)cc(=O)[nH]4)c2O3)c1 (stereo not drawn) | ATM (Homo sapiens) | > 7.00
COc1ccc(CCN2CCC(Nc3ccc4c(c3)Cc3ccnc(-c5cc(N6CCOCC6)cc(=O)[nH]5)c3O4)CC2)cc1 | ATM (Homo sapiens) | 6.30 to 7.00

###

Measured On: ATM (Homo sapiens, UniProt Q13315)
Construct: detecting phosphorylation of Chk2 in a human non-small cell lung cancer cell line NCI-H460 (ATCC company); host or cells: NCI-H460 human non-small cell lung cancer cells
Test Protocol: ATM inhibition test (phosphorylation of Chk2 generated by ionizing radiation, AlphaScreen SureFire)
Type: cell-based
Condition Set: phosphorylated Chk2 in NCI-H460 cells, ionizing radiation 8Gy, 1 hour after test compound treatment; read-out: ATM inhibitory activity
pIC50: −log10 of the molar value.
Assay Metric: pIC50

Molecule | Measured
COc1cncc(CN2CCC(Nc3ccc4c(c3)Sc3cccc(-c5cc(N6CCOCC6)cc(=O)[nH]5)c3S4)CC2)c1 | 6.30 to 7.00
COc1ccncc1CN1CCC(Nc2ccc3c(c2)Sc2cccc(-c4cc(N5CCOCC5)cc(=O)[nH]4)c2S3)C1 (stereo not drawn) | 6.30 to 7.00
CNc1ccc(CNc2ccc3c(c2)Sc2cccc(-c4cc(N5CCOCC5)cc(=O)[nH]4)c2O3)cn1 | > 7.00
O=c1cc(N2CCOCC2)cc(-c2cccc3c2Oc2ccc(NCc4ccnc(Cl)c4F)cc2C3)[nH]1 | 6.30 to 7.00
Cc1nccc(C(C)Nc2ccc3c(c2)Sc2cccc(-c4cc(N5CCOCC5)cc(=O)[nH]4)c2S3)n1 (single isomer, unassigned) [Example 1-12-141-1] | > 7.00
Cc1cccc(CCN2CCC(Nc3ccc4c(c3)Cc3cccc(-c5cc(N6CCOCC6)cc(=O)[nH]5)c3O4)CC2)c1 | 5.70 to 6.30

###

Measured On: ATM (Homo sapiens, UniProt Q13315)
Construct: detecting phosphorylation of Chk2 in a human non-small cell lung cancer cell line NCI-H460 (ATCC company); host or cells: NCI-H460 human non-small cell lung cancer cells
Test Protocol: ATM inhibition test (phosphorylation of Chk2 generated by ionizing radiation, AlphaScreen SureFire)
Type: cell-based
Condition Set: phosphorylated Chk2 in NCI-H460 cells, ionizing radiation 8Gy, 1 hour after test compound treatment; read-out: ATM inhibitory activity
pIC50: −log10 of the molar value.
Overview of recorded pIC50 for various compounds

Compound | pIC50
Cc1ccc(C(CCN2CCCCC2)Nc2ccc3c(c2)Sc2cccc(-c4cc(N5CCOCC5)cc(=O)[nH]4)c2S3)nc1 (single isomer, unassigned) | > 7.00
CC(CNC1CCCC1)Nc1ccc2c(c1)Sc1cccc(-c3cc(N4CCOCC4)cc(=O)[nH]3)c1S2 (stereo not drawn) | 6.30 to 7.00
Cc1ccc(C(Nc2ccc3c(c2)Sc2cccc(-c4cc(N5CCOCC5)cc(=O)[nH]4)c2S3)C2CCCC2)nc1 (stereo not drawn) | 6.30 to 7.00
CNc1ncc(C(C)Nc2ccc3c(c2)Cc2cccc(-c4cc(N5CCOCC5)cc(=O)[nH]4)c2O3)cn1 (stereo not drawn) | 6.30 to 7.00
O=c1cc(N2CCOCC2)cc(-c2cccc3c2Oc2ccc(NCCCc4cccnc4)cc2C3)[nH]1 | 6.30 to 7.00
Cc1cnc(C(CCN(C)CCO)Nc2ccc3c(c2)Sc2cccc(-c4cc(N5CCOCC5)cc(=O)[nH]4)c2S3)cn1 (single isomer, unassigned) | 6.30 to 7.00
Cc1cnc(C(C)Nc2ccc3c(c2)Sc2cccc(-c4cc(N5CCOCC5)cc(=O)[nH]4)c2S3)nc1 (single isomer, unassigned) [Example 1-12-139-2] | > 7.00
O=c1cc(N2CCOCC2)cc(-c2c(F)ccc3c2Oc2ccc(NCc4cccc(Cl)n4)cc2C3)[nH]1 | > 7.00
COc1cccnc1CNc1ccc2c(c1)Sc1cccc(-c3cc(N4CCOCC4)cc(=O)[nH]3)c1O2 | > 7.00

###

Measured On: ATM (Homo sapiens, UniProt Q13315)
Construct: detecting phosphorylation of Chk2 in a human non-small cell lung cancer cell line NCI-H460 (ATCC company); host or cells: NCI-H460 human non-small cell lung cancer cells
Test Protocol: ATM inhibition test (phosphorylation of Chk2 generated by ionizing radiation, AlphaScreen SureFire)
Format: cell-based
Condition Set: phosphorylated Chk2 in NCI-H460 cells, ionizing radiation 8Gy, 1 hour after test compound treatment; read-out: ATM inhibitory activity
Overview of recorded IC50 for various compounds

Compound | IC50
COC[C@H](CN1CCC(C(F)(F)F)CC1)Nc1ccc2c(c1)Sc1cccc(-c3cc(N4CCOCC4)cc(=O)[nH]3)c1S2 [Example 1-46-8] | < 100 nM
O=c1cc(N2CCOCC2)cc(-c2cccc3c2Oc2ccc(NCc4cnc5ccccc5c4)cc2C3)[nH]1 [Example 2-2-46] | < 100 nM
Cc1csc(CNc2ccc3c(c2)Cc2cccc(-c4cc(N5CCOCC5)cc(=O)[nH]4)c2O3)c1 [Example 2-14-41] | 100 to 500 nM
CN(C)C1CCN(c2cccc(CNc3ccc4c(c3)Sc3cccc(-c5cc(N6CCOCC6)cc(=O)[nH]5)c3S4)n2)C1 (stereo not shown) [Example 1-12-35] | 100 to 500 nM
